Tested on: Escherichia coli TOP10
PROCEDURE_DETAILS: shrunken log2 fold change of peptide-encoding DNA abundance (4.5 h post-induction vs induction); higher = less antimicrobial activity (less host growth inhibition)
COND: time post-induction: 4.5 h; library: site-saturation at positions 5, 18, 19, 20
shrunken log2 fold change overview
# print the numeric value only

Consider the reported shrunken log2 fold change for these sequences:
{"MACROMOLECULE_SEQUENCE": "RRIRDRPPRLPRPRPRPAMFPRP", "MEASUREMENT": -0.228}
{"MACROMOLECULE_SEQUENCE": "RRIRLRPPRLPRPRPRPVYWPRP", "MEASUREMENT": -0.14}
{"MACROMOLECULE_SEQUENCE": "RRIRYRPPRLPRPRPRPYWRPRP", "MEASUREMENT": 0.0608}
{"MACROMOLECULE_SEQUENCE": "RRIRRRPPRLPRPRPRPKGQPRP", "MEASUREMENT": 0.176}
{"MACROMOLECULE_SEQUENCE": "RRIRLRPPRLPRPRPRPVDHPRP", "MEASUREMENT": -0.0221}
{"MACROMOLECULE_SEQUENCE": "RRIRMRPPRLPRPRPRPLNDPRP", "MEASUREMENT": 0.106}
{"MACROMOLECULE_SEQUENCE": "RRIRNRPPRLPRPRPRPFKMPRP", "MEASUREMENT": -0.258}
{"MACROMOLECULE_SEQUENCE": "RRIRNRPPRLPRPRPRPPGQPRP", "MEASUREMENT": 0.0465}

Next sequence, please.
Q: Return reported shrunken log2 fold change; argument: RRIRNRPPRLPRPRPRPLFWPRP
A: 0.0854

====

Test system: Escherichia coli TOP10
PROCEDURE_DETAILS: shrunken log2 fold change of peptide-encoding DNA abundance (4.5 h post-induction vs induction); higher = less antimicrobial activity (less host growth inhibition)
COND: time post-induction: 4.5 h; library: site-saturation at positions 5, 18, 19, 20
RECORDED_METRIC: shrunken log2 fold change

{"MACROMOLECULE_SEQUENCE": "RRIRHRPPRLPRPRPRPYHIPRP", "shrunken log2 fold change": -0.045}
{"MACROMOLECULE_SEQUENCE": "RRIRKRPPRLPRPRPRPFSVPRP", "shrunken log2 fold change": 0.034}

Q: I am curious: what shrunken log2 fold change value has been reported for RRIRSRPPRLPRPRPRPKLQPRP ?
A: 0.117

Q: Entry RRIRTRPPRLPRPRPRPEIWPRP please
A: 0.264

Q: Again, but for RRIRYRPPRLPRPRPRPCGKPRP
A: -0.0542

Q: Could you do the same for RRIRCRPPRLPRPRPRPDMEPRP , please?
A: 0.000584

Q: Further, for RRIRARPPRLPRPRPRPACYPRP ?
A: 0.489

====

Tested on: Escherichia coli TOP10
PROCEDURE_DETAILS: shrunken log2 fold change of peptide-encoding DNA abundance (4.5 h post-induction vs induction); higher = less antimicrobial activity (less host growth inhibition)
COND: time post-induction: 4.5 h; library: site-saturation at positions 5, 18, 19, 20
The entries below come with measured shrunken log2 fold change values attached.
Note: the reply should be a number with no unit written.

Below, each entry is followed by its recorded shrunken log2 fold change result.
{"MACROMOLECULE_SEQUENCE": "RRIRTRPPRLPRPRPRPCAIPRP", "shrunken log2 fold change": 0.00368}
{"MACROMOLECULE_SEQUENCE": "RRIRMRPPRLPRPRPRPLQIPRP", "shrunken log2 fold change": -0.343}

Q: Query the reported shrunken log2 fold change for Escherichia coli TOP10; item: RRIRMRPPRLPRPRPRPDVGPRP
A: 0.0278

Q: How about RRIRFRPPRLPRPRPRPNNKPRP ?
A: -0.646

Q: Please answer likewise for RRIRTRPPRLPRPRPRPHERPRP
A: 0.594

Q: Would you kindly repeat that for RRIRYRPPRLPRPRPRPEAPPRP ?
A: -0.0405

Q: Another sequence: RRIRLRPPRLPRPRPRPWIFPRP
A: -0.0453

Q: And the next one, RRIRTRPPRLPRPRPRPLDPPRP ?
A: -0.382

====

Test system: Escherichia coli TOP10
PROCEDURE_DETAILS: shrunken log2 fold change of peptide-encoding DNA abundance (4.5 h post-induction vs induction); higher = less antimicrobial activity (less host growth inhibition)
COND: time post-induction: 4.5 h; library: site-saturation at positions 5, 18, 19, 20
Hi, to clarify the labels: true (1) covers shrunken log2 fold change from -0.2 upward, false (0) covers anything below -0.2.

Solved cases below.
{"MACROMOLECULE_SEQUENCE": "RRIRSRPPRLPRPRPRPFNIPRP", "CATEGORY": "true (1)"}
{"MACROMOLECULE_SEQUENCE": "RRIRWRPPRLPRPRPRPHYEPRP", "CATEGORY": "false (0)"}
{"MACROMOLECULE_SEQUENCE": "RRIRGRPPRLPRPRPRPRGDPRP", "CATEGORY": "true (1)"}
{"MACROMOLECULE_SEQUENCE": "RRIRPRPPRLPRPRPRPLMLPRP", "CATEGORY": "false (0)"}
{"MACROMOLECULE_SEQUENCE": "RRIRNRPPRLPRPRPRPPNYPRP", "CATEGORY": "false (0)"}

Now examine the next entry.
Q: Test whether the sequence RRIRFRPPRLPRPRPRPVYVPRP records shrunken log2 fold change of -0.2 or higher.
A: false (0)

====

Test system: Escherichia coli TOP10
PROCEDURE_DETAILS: shrunken log2 fold change of peptide-encoding DNA abundance (4.5 h post-induction vs induction); higher = less antimicrobial activity (less host growth inhibition)
COND: time post-induction: 4.5 h; library: site-saturation at positions 5, 18, 19, 20
Here, each record is paired with measured shrunken log2 fold change data.
Please give the numeric answer without any surrounding text.

{"MACROMOLECULE_SEQUENCE": "RRIRMRPPRLPRPRPRPHFEPRP", "shrunken log2 fold change": -0.0874}
{"MACROMOLECULE_SEQUENCE": "RRIRTRPPRLPRPRPRPLYFPRP", "shrunken log2 fold change": -0.418}
{"MACROMOLECULE_SEQUENCE": "RRIRMRPPRLPRPRPRPRAGPRP", "shrunken log2 fold change": 1.08}
{"MACROMOLECULE_SEQUENCE": "RRIRGRPPRLPRPRPRPWCSPRP", "shrunken log2 fold change": -0.0965}
{"MACROMOLECULE_SEQUENCE": "RRIRPRPPRLPRPRPRPVPAPRP", "shrunken log2 fold change": 0.361}
{"MACROMOLECULE_SEQUENCE": "RRIRVRPPRLPRPRPRPFCPPRP", "shrunken log2 fold change": -0.0571}

Q: So what does the record say about shrunken log2 fold change for RRIRMRPPRLPRPRPRPTTAPRP ?
A: 1.19

Q: Would you kindly repeat that for RRIRKRPPRLPRPRPRPFDGPRP ?
A: 0.23

====

# maps each entry to its shrunken log2 fold change
Tested on: Escherichia coli TOP10
PROCEDURE_DETAILS: shrunken log2 fold change of peptide-encoding DNA abundance (4.5 h post-induction vs induction); higher = less antimicrobial activity (less host growth inhibition)
COND: time post-induction: 4.5 h; library: site-saturation at positions 5, 18, 19, 20
Returns: the value as a bare number; no unit string appended.

{"MACROMOLECULE_SEQUENCE": "RRIRFRPPRLPRPRPRPPHDPRP", "shrunken log2 fold change": 0.336}

Q: Short answer please: shrunken log2 fold change, Escherichia coli TOP10, entry RRIRHRPPRLPRPRPRPLCKPRP
A: 0.0111

Q: Another sequence to look at: RRIRARPPRLPRPRPRPGSMPRP
A: 0.135

Q: Now give it for RRIRLRPPRLPRPRPRPFADPRP too.
A: 0.0979

Q: Then RRIRARPPRLPRPRPRPCPYPRP ?
A: -0.359

Q: Then what about the sequence RRIRFRPPRLPRPRPRPISSPRP ?
A: -0.0616

====

Test system: Escherichia coli TOP10;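 further: peptides expressed intracellularly from a pBAD plasmid library in pooled LB shake-flask culture, induced with 0.3% L-arabinose, DNA abundance read by NGS, three biological replicates, DESeq2 with apeglm shrinkage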
PROCEDURE_DETAILS: shrunken log2 fold change of peptide-encoding DNA abundance (4.5 h post-induction vs induction); higher = less antimicrobial activity (less host growth inhibition)
COND: time post-induction: 4.5 h; library: site-saturation at positions 5, 18, 19, 20
Answer Not fulfilled if shrunken log2 fold change is under -0.08, and Fulfilled if it is -0.08 or more.

Consider the worked cases shown below.
{"MACROMOLECULE_SEQUENCE": "RRIRCRPPRLPRPRPRPQTMPRP", "TARGET_DESC": "Escherichia coli TOP10", "CATEGORY": "Not fulfilled"}
{"MACROMOLECULE_SEQUENCE": "RRIRYRPPRLPRPRPRPGNSPRP", "TARGET_DESC": "Escherichia coli TOP10", "CATEGORY": "Fulfilled"}
{"MACROMOLECULE_SEQUENCE": "RRIRLRPPRLPRPRPRPGYGPRP", "TARGET_DESC": "Escherichia coli TOP10", "CATEGORY": "Fulfilled"}
{"MACROMOLECULE_SEQUENCE": "RRIRPRPPRLPRPRPRPVEKPRP", "TARGET_DESC": "Escherichia coli TOP10", "CATEGORY": "Fulfilled"}
{"MACROMOLECULE_SEQUENCE": "RRIRSRPPRLPRPRPRPEWKPRP", "TARGET_DESC": "Escherichia coli TOP10", "CATEGORY": "Fulfilled"}

Q: Please indicate if the recorded shrunken log2 fold change for RRIRCRPPRLPRPRPRPTRYPRP meets or exceeds -0.08.
A: Not fulfilled

Q: Also RRIRVRPPRLPRPRPRPSAAPRP ?
A: Fulfilled

Q: Thanks! And RRIRWRPPRLPRPRPRPVFMPRP ?
A: Fulfilled

Q: Next up: RRIRYRPPRLPRPRPRPDMHPRP
A: Not fulfilled

Q: For RRIRMRPPRLPRPRPRPGWAPRP then?
A: Fulfilled

Q: Further, for RRIRARPPRLPRPRPRPNICPRP ?
A: Fulfilled

Q: Continue with RRIRSRPPRLPRPRPRPLIKPRP
A: Not fulfilled

Q: And what about the sequence RRIRLRPPRLPRPRPRPYRYPRP ?
A: Not fulfilled

Q: Can you handle RRIRYRPPRLPRPRPRPADWPRP next?
A: Fulfilled
